Organism: Rattus norvegicus
Experiment: Open TG-GATES - Regimen: Single
Type: toxicity, organism-based, Sprague-Dawley
Parameters: regimen Single, gender Male, age 6 weeks
Conditions: in vivo, po, 0 mg/kg, 9 h, tissue Blood, route gavage, dose level Control
Catalogue of molecules with associated Mono
Write the quantity with the unit trailing the number.

* C[C@H](CS)C(=O)N1CCC[C@H]1C(=O)O [CAPTOPRIL] | 5.4%
* O=C(O)c1cc(/N=N/c2ccc(S(=O)(=O)Nc3ccccn3)cc2)ccc1O [SULFASALAZINE] | 3%
* CSc1ccc2c(c1)N(CCC1CCCCN1C)c1ccccc1S2 (stereo unspecified) [THIORIDAZINE] | 8.4%
* Cn1c(=O)c2[nH]cnc2n(C)c1=O.O [THEOPHYLLINE] | 2.4%
* CN(C)CCC=C1c2ccccc2CCc2ccccc21 [AMITRIPTYLINE] | 2.4%

Next, consider the following molecule.
Ask: I am curious: what Mono value has been reported for COc1ccc(Cc2nccc3cc(OC)c(OC)cc23)cc1OC [PAPAVERINE] ?
Result: 2.4%

====

Organism: Rattus norvegicus
Test: Open TG-GATES - Regimen: Daily Repeat
Format: toxicity, organism-based, Sprague-Dawley
Set-up: regimen Daily Repeat, gender Male, age 6 weeks
Settings: in vivo, po, 0 mg/kg, […], tissue Plasma, route gavage, dose level Control, time 7 day
// LDH lookup, one value per entry
I only need the number, in IU/L, no unit after it.

Recorded LDH, per entry:
* CCc1cc(C(N)=S)ccn1 [ETHIONAMIDE] | 74.6
* CSc1ccc2c(c1)N(CCC1CCCCN1C)c1ccccc1S2 (stereo not drawn) [THIORIDAZINE] | 149.4
* C[C@H](CS)C(=O)N1CCC[C@H]1C(=O)O [CAPTOPRIL] | 72.4
* COc1ccc2c(c1)c(CC(=O)O)c(C)n2C(=O)c1ccc(Cl)cc1 [INDOMETHACIN] | 97.4
* O=C(O)c1cc(/N=N/c2ccc(S(=O)(=O)Nc3ccccn3)cc2)ccc1O [SULFASALAZINE] | 218.6
* CO[C@H]1/C=C/O[C@@]2(C)Oc3c(C)c(O)c4c(O)c(c(/C=N/N5CCN(C)CC5)c(O)c4c3C2=O)NC(=O)/C(C)=C\C=C\[C@H](C)[C@H](O)[C@@H](C)[C@@H](O)[C@@H](C)[C@H](OC(C)=O)[C@@H]1C [RIFAMPIN] | 108.4
* CCCC(CCC)C(=O)O [VALPROIC ACID] | 199.6

Kindly review the next compound as well.
Ask: What value of LDH has been recorded for this entry: Clc1ccccc1CN1CCc2sccc2C1 [TICLOPIDINE]
Result: 144.6

====

Species: Rattus norvegicus
Assay: Open TG-GATES - Regimen: Single
Type: toxicity, organism-based, Sprague-Dawley
Parameters: regimen Single, gender Male, age 6 weeks
Settings: in vivo, po, 0 mg/kg, 3 h, tissue Blood, route gavage, dose level Control
ASSAY ENDPOINT: Hb (g/dL)
Value expressed in g/dL; do not type the unit.

Field: example entries. Status: answers known.
* O=C(O)c1cc(/N=N/c2ccc(S(=O)(=O)Nc3ccccn3)cc2)ccc1O | 12.8
* COc1ccc(Cc2nccc3cc(OC)c(OC)cc23)cc1OC | 13.5
* CC(=O)Oc1ccccc1C(=O)O | 13.4
* NC(=O)N/N=C/c1ccc([N+](=O)[O-])o1 | 12.7

Ask: Report Hb for O=C(O)c1cn(C2CC2)c2cc(N3CCNCC3)c(F)cc2c1=O please.
Result: 13

====

Organism: Rattus norvegicus
Assay: Open TG-GATES - Regimen: Single
Assay type: toxicity, organism-based, Sprague-Dawley
Design: regimen Single, gender Male, age 6 weeks
Conditions: in vivo, po, 0 mg/kg, 3 h, tissue Plasma, route gavage, dose level Control
ASSAY ENDPOINT: IP (mg/dL)
Quick reminder: number only, in mg/dL, skip the unit.

These solved cases illustrate the format of a correct answer.
• CSc1ccc2c(c1)N(CCC1CCCCN1C)c1ccccc1S2 (stereo unspecified) = 10.1
• Cn1c(=O)c2[nH]cnc2n(C)c1=O.O = 8.8
• C[C@H](CS)C(=O)N1CCC[C@H]1C(=O)O = 9.9
• CN(C)CCC=C1c2ccccc2CCc2ccccc21 = 9.2
• CCc1cc(C(N)=S)ccn1 [ETHIONAMIDE] = 8.2

The record that follows has no IP shown yet.
Ask: // IP lookup, key: NC(=O)N/N=C/c1ccc([N+](=O)[O-])o1
Result: 9.6

====

Catalogue of Lym values
Species on record: Rattus norvegicus
Experiment: Open TG-GATES - Regimen: Single
Format: toxicity, organism-based, Sprague-Dawley
Set-up: regimen Single, gender Male, age 6 weeks
Details: in vivo, po, 1000 mg/kg, 24 h, tissue Blood, route gavage, dose level High
Put down the number, then write its unit next to it.

* Clc1ccccc1CN1CCc2sccc2C1 [TICLOPIDINE] | 80.8%

Ask: May I ask what Lym has been recorded for C[C@H](CS)C(=O)N1CCC[C@H]1C(=O)O [CAPTOPRIL] ?
Result: 79%

Ask: Can you share its Lym? I mean this compound: O=C(O)c1cn(C2CC2)c2cc(N3CCNCC3)c(F)cc2c1=O [CIPROFLOXACIN]
Result: 80%

====

Parameter AST: see the listing below.
Organism: Rattus norvegicus
Assay: Open TG-GATES - Regimen: Single
Assay type: toxicity, organism-based, Sprague-Dawley
Set-up: regimen Single, gender Male, age 6 weeks
Details: in vivo, po, 0 mg/kg, 3 h, tissue Plasma, route gavage, dose level Control
// return numeric value only (unit: IU/L, not printed)

Ask: State the recorded AST for this entry: Clc1ccccc1CN1CCc2sccc2C1 [TICLOPIDINE]
Result: 69.2

====

Species on record: Rattus norvegicus
Test: Open TG-GATES - Regimen: Daily Repeat
Type: toxicity, organism-based, Sprague-Dawley
Design: regimen Daily Repeat, gender Male, age 6 weeks
Details: in vivo, po, 0 mg/kg, […], tissue Blood, route gavage, dose level Control, time 14 day
ASSAY ENDPOINT: PT
Give the value; after it, write the unit.

Record excerpt, results attached:
* CN(C)CCC=C1c2ccccc2CCc2ccccc21 [AMITRIPTYLINE] | 15.6 s
* COc1ccc(Cc2nccc3cc(OC)c(OC)cc23)cc1OC [PAPAVERINE] | 15.5 s
* O=C(O)c1cn(C2CC2)c2cc(N3CCNCC3)c(F)cc2c1=O [CIPROFLOXACIN] | 9.8 s
* O=C(O)c1cc(/N=N/c2ccc(S(=O)(=O)Nc3ccccn3)cc2)ccc1O [SULFASALAZINE] | 12.2 s
* NC(=O)N/N=C/c1ccc([N+](=O)[O-])o1 [NITROFURAZONE] | 14.4 s

Kindly consider the entry below.
Ask: Sample COc1ccc2c(c1)c(CC(=O)O)c(C)n2C(=O)c1ccc(Cl)cc1 [INDOMETHACIN] — what was its PT?
Result: 11.8 s

====

Species: Rattus norvegicus
Test: Open TG-GATES - Regimen: Daily Repeat
Format: toxicity, organism-based, Sprague-Dawley
Parameters: regimen Daily Repeat, gender Male, age 6 weeks
Settings: in vivo, po, 0 mg/kg, […], tissue Plasma, route gavage, dose level Control, time 14 day
Each entry below carries its reported K.
The answer is to be given in meq/L; state only the numeric part.

These solved cases illustrate the format of a correct answer.
• NC(=O)N/N=C/c1ccc([N+](=O)[O-])o1 = 4
• O=C(O)c1cc(/N=N/c2ccc(S(=O)(=O)Nc3ccccn3)cc2)ccc1O = 3.8
• CC(=O)Oc1ccccc1C(=O)O = 3.9
• C[C@H](CS)C(=O)N1CCC[C@H]1C(=O)O = 4.5
• NC(=O)N1c2ccccc2C=Cc2ccccc21 [CARBAMAZEPINE] = 3.8

Ask: Any idea what K was measured for CN(C)CCC=C1c2ccccc2CCc2ccccc21 ?
Result: 4.3

Ask: Look up K for this compound: CO[C@H]1/C=C/O[C@@]2(C)Oc3c(C)c(O)c4c(O)c(c(/C=N/N5CCN(C)CC5)c(O)c4c3C2=O)NC(=O)/C(C)=C\C=C\[C@H](C)[C@H](O)[C@@H](C)[C@@H](O)[C@@H](C)[C@H](OC(C)=O)[C@@H]1C
Result: 5

====

Organism: Rattus norvegicus
Assay: Open TG-GATES - Regimen: Daily Repeat
Assay type: toxicity, organism-based, Sprague-Dawley
Design: regimen Daily Repeat, gender Male, age 6 weeks
Details: in vivo, po, 0 mg/kg, […], tissue Blood, route gavage, dose level Control, time 7 day
ASSAY ENDPOINT: Ht (%)
State the answer as a number, implicitly in %.

* CCCC(CCC)C(=O)O [VALPROIC ACID] | 40.7
* NC(=O)N/N=C/c1ccc([N+](=O)[O-])o1 [NITROFURAZONE] | 39.9

Ask: // returns reported Ht for input CC(=O)Oc1ccccc1C(=O)O [ASPIRIN]
Result: 40.3

Ask: # query: Ht of entry O=C(O)c1cn(C2CC2)c2cc(N3CCNCC3)c(F)cc2c1=O [CIPROFLOXACIN]
Result: 39.6
